Target of assay: UniProt Q13526
Test summary: Inhibition of Gst-tagged human Pin1 assessed as inhibition constant by Western blot analysis
*1 amine or outer side, *2 acyl side, *3 side chain or, on linkers, in order; H or OH if unused. Where a SMILES comes first, the peptide text is derived from it. [ ]: non-standard residue; d: D form. The star is where a group is joined. Biotin = O=C1N[C@H]2[C@H](CS[C@H]2CCCCC(=O)*)N1; X2 = CC(OP(=O)(O)O)[C@H](N[*:1])C(=O)[*:2]; 1Nal = N[C@@H](Cc1cccc2ccccc12)C(=O)O; 2Nal = N[C@@H](Cc1ccc2ccccc2c1)C(=O)O; Bta = N[C@@H](Cc1csc2ccccc12)C(=O)O; Pip = O=C(O)[C@@H]1CCCCN1; Abu = CC[C@H](N)C(=O)O
Please assign 0 (no) whenever Ki is at or above 20 nM, and 1 (yes) whenever it is below.

Reference set (3 entries):
Compound	Qualitative label
CC(=O)N[C@@H](CCCCNC(=O)CCCC[C@@H]1SC[C@@H]2NC(=O)N[C@@H]21)C(=O)N[C@@H](C)C(=O)N[C@@H](C)C(=O)N[C@@H](Cc1csc2ccccc12)C(=O)N[C@H](C(=O)N1CCCC[C@H]1C(=O)N[C@@H](Cc1ccc2ccccc2c1)C(=O)N[C@@H](CCC(N)=O)C(N)=O)C(C)OP(=O)(O)O (stereo not given in full) (Ac-K(Biotin)AA[Bta][X2][Pip][2Nal]Q-NH2)	0 (no)
C[C@H](N)C(=O)N[C@H](C(=O)N1CCCC[C@H]1C(=O)N[C@@H](Cc1ccc2ccccc2c1)C(=O)N[C@@H](CCC(N)=O)C(N)=O)[C@@H](C)OP(=O)(O)O	0 (no)
CC(=O)N[C@@H](CCCCNC(=O)CCCC[C@@H]1SC[C@@H]2NC(=O)N[C@@H]21)C(=O)N[C@@H](C)C(=O)N[C@@H](C)C(=O)N[C@@H](Cc1csc2ccccc12)C(=O)N[C@H](C(=O)N1CCCC[C@H]1C(=O)N[C@@H](Cc1cccc2ccccc12)C(=O)N[C@@H](CCC(N)=O)C(N)=O)C(C)OP(=O)(O)O (stereo not given in full) (Ac-K(Biotin)AA[Bta][X2][Pip][1Nal]Q-NH2)	1 (yes)

is_below(Ki, 20 nM) for CC[C@H](NC(C)=O)C(=O)N[C@H](C(=O)N1CCCC[C@H]1C(=O)N[C@@H](Cc1cccc2ccccc12)C(=O)N[C@@H](CCC(N)=O)C(N)=O)C(C)OP(=O)(O)O (stereo not given in full) (Ac-[Abu][X2][Pip][1Nal]Q-NH2) ?
1 (yes)

====

Target of assay: Peptidyl-prolyl cis-trans isomerase NIMA-interacting 1 (Homo sapiens)
Sequence (Q13526 whole entry): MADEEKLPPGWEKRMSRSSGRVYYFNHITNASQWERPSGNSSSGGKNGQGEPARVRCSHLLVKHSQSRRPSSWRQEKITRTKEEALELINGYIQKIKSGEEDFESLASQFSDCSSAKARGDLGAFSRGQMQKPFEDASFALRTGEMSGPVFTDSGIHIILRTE
Test summary: Inhibition of human Pin1
Measure name: IC50

Request the reported IC50 associated with `CC(=O)N[C@H](CN1CCC[C@H]1C(=O)NCCc1c[nH]c2ccccc12)OP(=O)(O)O`
12 µM

====

Target of assay: Peptidyl-prolyl cis-trans isomerase NIMA-interacting 1 (Homo sapiens)
Test summary: Inhibition of human Pin1 measured after 30 mins by fluorescence based assay
Measure name: pIC50
pIC50 here is simply -log10 of the concentration when that concentration is written in mol/L.

Please give the measured pIC50 for this molecule: `NC(=O)CNC(=O)C1=C[C@@H](Oc2cc(F)ccc2Br)[C@H](O)[C@H](O)C1`
5.97

Data provenance: ChEMBL document CHEMBL5325477
